# study_target: T1, human α-CGRP (Homo sapiens, UniProt P06881)
# T1 construct: 1-37 (WT); purchased GenScript Corporation or Global Peptide Services
# T1 sequence (P06881 83-119 limits assumed): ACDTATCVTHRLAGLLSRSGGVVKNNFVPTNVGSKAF
# method_summary: Biacore SPR affinity of Fab fragments to N-biotinylated human α-CGRP on SA chip
# Type: binding
# particulars: 37° C., screening mode except underlined values
Property: α-human koff; scope: individual molecules
Entry format: amount then unit.

M46: G1 variant; L1 R28N; L2 G50A L56T; H2 E54K A57N S58E H61F; HC-FW3 L99T A100V (antibody, V domains shown) VH: EVQLVESGGGLVQPGGSLRLSCAASGFTFSNYWISWVRQAPGKGLEWVAEIRSKSDNEATFYAEAVKGRFTISRDNAKNSLYLQMNSLRAEDTAVYYCTVYFDYGLAIQNYWGQGTLVTVSS VL: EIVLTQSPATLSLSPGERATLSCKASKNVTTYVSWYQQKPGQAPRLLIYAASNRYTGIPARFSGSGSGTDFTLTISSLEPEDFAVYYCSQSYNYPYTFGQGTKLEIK :: 0.000539 s⁻¹

[ask] # lookup: α-human koff of M64: G1 variant; L1 R28N T30G; L2 G50A; H2 E54K A57N S58V; HC-FW3 L99T A100V (antibody, V domains shown) VH: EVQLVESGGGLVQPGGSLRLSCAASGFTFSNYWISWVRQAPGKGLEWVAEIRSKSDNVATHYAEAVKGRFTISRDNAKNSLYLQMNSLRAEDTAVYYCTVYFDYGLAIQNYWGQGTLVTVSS VL: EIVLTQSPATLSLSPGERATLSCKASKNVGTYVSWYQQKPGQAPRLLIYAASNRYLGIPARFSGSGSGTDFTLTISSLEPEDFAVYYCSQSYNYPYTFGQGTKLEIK
[reply] 0.00132 s⁻¹
